- System: MDA-MB-231
- assayExplanation: NCI tumour cell line growth inhibition, 48 h
Activity calls are given as the source filed them. No stated cut-off is given here; in the data, active = GI50 up to about 1.1 µM and inactive = higher.
assayEndpoint: GI50

Task item: Reported GI50 for MDA-MB-231, given O=C1CCN2c3ccccc3[C@H]3Cc4cccc(c4[C@@H]2C3)CCO1 ?
Reply: 83 µM (inactive)

Task item: Query Cc1ccc(/N=N/c2ccc(O)c(CN(C)C)c2)cc1 next
Reply: 20.6 µM (inactive)

Task item: Queued: CC(C)C1(C)N=C(C(F)(F)F)c2cc(C(=O)C(F)(F)F)c3ccccc3c2N1 (stereo unspecified)
Reply: 2.73 µM (inactive)

Task item: Same read-out for O=S(=O)(O)c1ccc2cccc(/N=N\c3c(O)ccc4ccccc34)c2c1 ?
Reply: > 100 µM (inactive)

Task item: Check C=CC1(CC/C(=C\[N+](=O)[O-])c2ccc(OC)c(OC)c2)OCC(C)(C)CO1 too.
Reply: 25.9 µM (inactive)

Task item: Same again, this time with NC(=O)CC(N)c1nnn[nH]1 (stereo unspecified)
Reply: > 100 µM (inactive)

----------
- System: M14
- assayExplanation: NCI tumour cell line growth inhibition, 48 h
Activity calls are given as the source filed them. No stated cut-off is given here; in the data, active = GI50 up to about 1.1 µM and inactive = higher.
Assign GI50 to each entry below.

Task item: What GI50 value was documented for this molecule, Cc1cc(O)nc(CNC(=O)c2cccc3ccccc23)n1 ?
Reply: > 100 µM (inactive)

Task item: What do you have for O=C(Nc1ccccc1Br)c1cccc([N+](=O)[O-])c1O ?
Reply: 4.32 µM (inactive)

Task item: Proceed to CC(=O)/N=C1/N(/C=C2\C(=O)Oc3ccccc3C2=O)C(=O)/C(=C/c2ccc(OC(C)=O)cc2)N1C
Reply: > 100 µM (inactive)

Task item: One more molecule: CN1CCCC2C(c3ccccc3)C(C3=NCCCC3)C(c3ccccc3)CC21 (centres undefined)
Reply: 20.7 µM (inactive)

----------
- Test system: A498
- assayExplanation: NCI tumour cell line growth inhibition, 48 h
The source made the active and inactive calls. Rule as the data show it: active = GI50 up to about 1.1 µM and inactive = higher.
For each entry below, report its GI50 value.

Task item: # input compound: O=C1C2C=CC1C1C(=O)OC(=O)C21 (stereo not given) ; wanted: its GI50
Reply: > 100 µM (inactive)

Task item: Could you do the same for CCOC(=O)c1c(N2CCOCC2)[nH]c(=O)c(C(c2ccc(N(C)C)cc2)c2c(O)c(C(=O)OCC)c(N3CCOCC3)[nH]c2=O)c1O , please?
Reply: > 100 µM (inactive)

Task item: Next entry: CC(=O)/N=C1/N(/C=C2\C(=O)Oc3ccccc3C2=O)C(=O)/C(=C/c2ccc(OC(C)=O)cc2)N1C
Reply: 9.18 µM (inactive)

Task item: Again, but for CC1(C)CC(=O)C(C(=O)C(=O)NC2=C(Cl)C(=O)c3ccccc3C2=O)C(=O)C1
Reply: > 100 µM (inactive)

Task item: Next compound up: Nc1nc(=O)n(C2OC(CO)C(O)C2O)c2ncc(-c3ccc(-c4ccccc4)cc3)nc12 (stereo not given)
Reply: > 100 µM (inactive)

----------
- Test system: SK-MEL-2
- assayExplanation: NCI tumour cell line growth inhibition, 48 h
Active and inactive are the calls of the source. No stated cut-off is given here; in the data, active = GI50 up to about 1.1 µM and inactive = higher.
# output must be one of true (active), false (inactive)

Task item: What is the recorded call for this compound in the test? N#CC(C#N)=C1C(=O)NC(N)=C1C#N
Reply: false

Task item: Then this compound: NC(=O)c1ccccc1NC(=O)C(=O)C(C(=O)c1ccc2ccccc2c1)C1OC(=O)c2ccccc21 (stereo not given)
Reply: false

Task item: // query: Cc1ccc(C(=C2Sc3ccccc3S2)C(=C2Sc3ccccc3S2)c2ccc(C)s2)s1
Reply: false

Task item: Same read-out for C[n+]1cccc2ccc3cccnc3c21 ?
Reply: false

Task item: Now consider Cn1c(=O)[nH]n(-c2ccc3ccccc3c2)c1=O .
Reply: false

Task item: What about Oc1ccccc1/C=N/Nc1nc(N/N=C/c2ccccc2O)nc(N/N=C/c2ccccc2O)n1 ?
Reply: false

Task item: O=[N+]([O-])c1cccc2nc3ccccc3c(NCCCN3CCOCC3)c12 ?
Reply: true

Task item: Try this compound too: S=c1[nH]c2ccc(Br)cc2c(=S)n1-c1ccccc1
Reply: false

Task item: Now this one: COc1cc2oc3c(c(=O)c2c(O)c1/C=C/C(C)C)CCC(C)(C)Oc1cc(O)ccc1-3
Reply: false

Task item: What would you report for COc1ccc(/C=N\O[Si](C)(C)C(C)(C)C)cc1O[Si](C)(C)C(C)(C)C ?
Reply: false
